Reported GI50 values, NCI/ADR-RES ovarian.

Consider the worked cases shown below.
CCCCCCN(CCCCCC)CCCNc1nccc2ccccc12: 1.6 µM
Fc1ccc(-c2nc(-c3nc4ccc(Cl)cc4[nH]3)cc3c2[nH]c2ccccc23)cc1: 3.42 µM

The following molecules each have a reported value; give each one's GI50.
1. CCN1CCC[C@H]1c1cc(O)c2c(c1OC)C[C@H]1C[C@H]3[C@H](N)C(=O)C(C(N)=O)=C(O)[C@@]3(O)C(=O)C1=C2O
2. COC(=O)/C(C#N)=C\N1CCN(C(=O)c2ccco2)C1=S

A)
1: 0.435 µM; 2: 24 µM

---

The following compounds each carry a recorded GI50 for HCC-2998 colon.

O=C1Cc2cc(CCn3ccnc3)c(Cl)cc2N1: 32.2 µM

Record GI50 for all entries; do not skip any.
1. O=C1NC(=NCc2cccs2)SC1Cc1ccc2ncccc2c1 (centres undefined)
2. O=C1NC(=NCC(CO)c2ccccc2)S/C1=C\c1ccc2ncccc2c1 (centres undefined)
3. N/C(=N\O)c1ncc(-c2ccc(C(F)(F)F)cc2)c(NC2CCCCCC2)n1
4. COc1ccc2c(c1)C(=O)c1c-2n(CCCN=[N+]=[N-])c(=O)c2ccccc12
5. Nc1nc(N)c2cc(CNc3ccc(Cl)c(Cl)c3)ccc2n1

A)
1. > 25 µM
2. 24.6 µM
3. 3.92 µM
4. 61.9 µM
5. 0.64 µM

Provide reported GI50 for each item, in the same order as listed.
1. CC(C)=CC/C=C(/C)[C@H]1CC[C@]2(C)[C@@H]1CC[C@@H]1[C@@]3(C)CCC(=O)NC(C)(C)[C@@H]3CC[C@]12C
2. COc1cc2c(cc1OCCCCNC(=O)c1cc3ccccc3[nH]1)N=CC1CCCN1C2=O (centres undefined)
3. COc1cc(/C=C/C(=O)C(=Cc2ccc(F)c(F)c2)C(=O)/C=C/c2ccc(O)c(OC)c2)ccc1O
4. CCOP(=O)(CCP(=O)(OCC)OCC)OCC.C[CH2][Sn]([Cl])([Cl])[CH2]C
5. Clc1ccc(-c2nc3c(-c4ccc(Cl)cc4)nc(-c4ccccc4)cn3c2-c2ccc(Cl)cc2)cc1
6. Cc1cccc(CN(C)c2ccc(CO)c(Cl)c2)c1
7. COc1cc2c(cc1OC)C(CCc1ccc(Cl)cc1)N(C)CC2 (centres undefined)
8. CCN1CCN(CCOc2ccc(CNc3ccc4nc(CCC5CCCCC5)[nH]c4c3)cc2)CC1

A)
20.2 µM
16.6 µM
1.98 µM
> 69.4 µM
> 50 µM
15.9 µM
16.4 µM
2.22 µM

---

# Tested on: OVCAR-3 ovarian
Assignment: determine reported GI50 for the given compounds.

COc1cc(/C=C/C(=O)C(=Cc2ccc(F)c(F)c2)C(=O)/C=C/c2ccc(O)c(OC)c2)ccc1O: 1910 nM
O=C(CCCn1c2c(sc3ncccc32)c(=O)n2nnc(-c3ccccc3)c12)NCCc1cnc[nH]1: 11000 nM
COc1ccc(CN2c3ccccc3Sc3ccccc32)cc1F: 312 nM

Give GI50 for each listed item.
1. CCN(CC)CCN1C(=O)c2cccc3c(-c4ccc5c(c4)ncn5C4CCCCC4)ccc(c23)C1=O
2. Clc1ccc(-c2nc3c(-c4ccc(Cl)cc4)nc(-c4ccccc4)cn3c2-c2ccc(Cl)cc2)cc1

A)
1730 nM
> 50000 nM

# batch size: 4; output GI50 per entry
1. CC/C(=N\Nc1nc2ccccc2n1C)c1ccccn1
2. O=S(=O)(NCCNc1nccc(-c2c(-c3cccc(O)c3)nc3sccn23)n1)c1ccc(F)cc1
3. CCN1CCC[C@H]1c1cc(O)c2c(c1OC)C[C@H]1C[C@H]3[C@H](N)C(=O)C(C(N)=O)=C(O)[C@@]3(O)C(=O)C1=C2O
4. CCCCCCN(CCCCCC)CCCNc1nccc2ccccc12

A)
1: < 10 nM; 2: 8530 nM; 3: 130 nM; 4: 1730 nM

---

# Test system: IGROV1 ovarian
# measurement-description: NCI tumour cell line growth inhibition, 48 h
assay-endpoint: TGI

CC(C)OP(=O)(OC(C)C)C(C(F)(F)F)C(F)(F)F: > 100 µM

Each compound below has a reported value. Please supply its TGI.
1. CC(=O)Nc1ccc2nncnc2c1
2. C/C(CC(O)(C(F)(F)F)C(F)(F)F)=N\N
3. CC/C(=N\Nc1nc2ccccc2n1C)c1ccccn1
4. CC1C2Cc3ccc(O)cc3C1(C)CCN2C (configuration not stated)
5. O=C(CC(=O)N1N=C(n2ccc3ccccc32)CC1c1ccccc1)Nc1cccc(Cl)c1 (configuration not stated)

A)
> 100 µM
> 10 µM
7.76 µM
> 100 µM
> 100 µM

# return TGI for each item in the list
1. N#CS/C(C(Cl)=C(Cl)Cl)=C(/Cl)[N+](=O)[O-]
2. COc1cc2cc3c4c(cc(OC)c(OC)c4c2cc1OC)CCN3C(=O)CCCC(=O)O
3. CCN1CCN(CCOc2ccc(CNc3ccc4nc(CCC5CCCCC5)[nH]c4c3)cc2)CC1
4. C=C1C(=O)OC2CCCCC3OC3C12 (configuration not stated)
5. O=C(CCc1nnc2s/c(=C\c3ccccc3)c(=O)n12)Nc1cc(Cl)ccc1Cl
6. CC(=O)CC(=O)CCCC(=O)Nc1ccc(Cl)cc1C
7. COc1ccc2c(c1)/C(=C(\C(Cl)=C(Cl)Cl)[N+](=O)[O-])N2

A)
1: 5.63 µM; 2: > 100 µM; 3: 11 µM; 4: 33.4 µM; 5: > 100 µM; 6: > 100 µM; 7: > 100 µM

---

# Tested on: SK-MEL-5 melanoma
# measurement-description: NCI tumour cell line growth inhibition, 48 h
Field: TGI. Provide a value for each of the compounds that follow.
Answers are plain numbers, in µM.

The following compounds have reported results that may help.
CCOc1ccc(Cc2nccc3cc(OCC)c(OCC)cc23)cc1OCC: 4.19
C=C1C(=O)OC2CCCCC3OC3C12 (centres undefined): 19.5
COc1cc(CNC(=O)/C=C/C=C/c2ccc3c(c2)OCO3)ccc1OCc1cn(-c2ccc(Cl)c(Cl)c2)nn1: 3.69

# batch size: 5; output TGI per entry
1. CC(C)=CC/C=C(/C)[C@H]1CC[C@]2(C)[C@@H]1CC[C@@H]1[C@@]3(C)CCC(=O)NC(C)(C)[C@@H]3CC[C@]12C
2. CCCNc1nc(N(C)O)nc(N(C)O)n1
3. Nc1nc(N)c2cc(CNc3ccc(Cl)c(Cl)c3)ccc2n1
4. Cc1c2c(c(C)c3c[n+](C)ccc13)Oc1ccccc1O2
5. CCCCc1ccc(Nc2nc3c(ncn3C3OC(COC(C)=O)C(OC(C)=O)C3OC(C)=O)c(=O)[nH]2)cc1 (centres undefined)

A)
1. 26.4
2. 6.61
3. 1.82
4. 42.5
5. 31.1

---

# Test system: OVCAR-5 ovarian
# measurement-description: NCI tumour cell line growth inhibition, 48 h
Answer each item with its documented TGI.

In the examples that follow, each entry is paired with its recorded TGI.
N=C(N)n1ncc(Cl)c(Cl)c1=O: 30.7 µM
CC1=C(C)C(=O)OC(C(C)(O)C2(O)CCC3(O)C4CC(Cl)C5(O)C(O)C=CC(=O)C5(C)C4CCC32C)C1 (stereo not drawn): > 100 µM
CSC1=Nc2c(c(C)c(-c3ccccc3)n2COC(CO)CO)C2=NC(=O)C(C)N12 (stereo not drawn): > 100 µM
CCCS(=O)(=O)O: > 100 µM
CC1=C(N2CC2)C(=O)C(CO)=C(N2CC2)C1=O: 0.74 µM

Record TGI for all entries; do not skip any.
1. O=C1NC(=NCC(CO)c2ccccc2)S/C1=C\c1ccc2ncccc2c1 (stereo not drawn)
2. N#CC12COC3(CCCCC3C1(C#N)C#N)OC2=N (stereo not drawn)
3. CN(C)CC(C(=O)c1ccccc1)c1ccccc1 (stereo not drawn)

A)
["> 25 µM", "30.4 µM", "16.8 µM"]

Hi team, please reply with TGI for each item in this list.
1. CC(=O)OCC1C(C(C)OC(C)=O)CCC2C1CCC1(C)C(OC(C)=O)CCC21 (stereo not drawn)
2. CCOC(=O)C(SCCO)C(C(=O)OCC)n1ccc(N)nc1=O (stereo not drawn)
3. COCCc1c(C)c(C#N)c2n(C)c3ccccc3n2c1=O
4. CCN(CC)CC(O)c1ccc2ccc3ccccc3c2c1 (stereo not drawn)
5. O=C(CC(=O)c1ccncc1)c1ccccc1
6. COc1ccc2c(c1)/C(=C(\C(Cl)=C(\Cl)N1CCCCC1)[N+](=O)[O-])N2

A)
["> 100 µM", "> 100 µM", "> 10 µM", "27.5 µM", "> 100 µM", "> 100 µM"]

---

# System: DU-145 prostate
# measurement-description: NCI tumour cell line growth inhibition, 48 h
assay-endpoint: TGI

Nc1nc(N)c2cc(CNc3ccc(Cl)c(Cl)c3)ccc2n1: 1.93 µM
COc1cc(N=C(N)N=C(N)N)c2ncccc2c1: > 100 µM
CS(C)(=O)=N/C=C\C(=O)C(Cl)(Cl)Cl: > 100 µM
C=C1C(=O)OC2/C=C(\C)CC/C=C(/C)CC(OC(=O)/C(=C/CO)CO)C12 (stereo unspecified): 33.1 µM
C[N+](C)(C)CCOP(=O)(O)OP(=O)([O-])OCC1CCC(n2ccc(N)nc2=O)O1 (stereo unspecified): > 100 µM

Dear colleague, could you send me TGI for each of the items below? Thanks.
1. CCCc1cc(=O)oc2c(C(=O)CC(C)C)c(O)c(CC=C(C)C)c(O)c12
2. Fc1ccc(-c2nc(-c3nc4ccc(Cl)cc4[nH]3)cc3c2[nH]c2ccccc23)cc1
3. O=C(N/N=C(/COc1cccc(Cl)c1)N=Cc1ccncc1)c1ccncc1
4. CCOC(=O)C(SCCO)C(C(=O)OCC)n1ccc(N)nc1=O (stereo unspecified)

A)
1: > 50 µM; 2: 12 µM; 3: > 100 µM; 4: > 100 µM

List the reported TGI of each compound below.
1. N#CC12COC3(CCCCC3C1(C#N)C#N)OC2=N (stereo unspecified)
2. O=C1NC(=NCc2cccs2)SC1Cc1ccc2ncccc2c1 (stereo unspecified)

A)
1. 28.7 µM
2. > 25 µM
